Reported IC50 values follow for various binders
- TEST TARGET: T1, recombinant human IL-6 (human, UniProt P05231 30-212, limits assumed)
- T1 construct: also called rhIL6; human recombinant IL-6
- PROTOCOL: competition ELISA, rhIL-6 in solution against captured IL-6 (Affinity (nM) by IC50 ELISA)
Report as a plain number; the unit nM is understood.

A selection of reference data follows.
INSERT INTO measurements (binder, measurement_unit, observed_measurement) VALUES
  ('mAb 1259 (antibody, V domains shown) VH: QVTLKESGPTLVKPTQTLTLTCSFSGFSLSTSGVGVGWVRQPPGKALEWLAFIWWDDDKYYSPSLESRLTITKDTSKNQVVLTMTNMDPVDTATYYCARSADDYLYYSFDTWGQGTLVT VL: DIQMTQSPSSLSAFVGDGVTMTCWASQSINDYLNWYHQRPGEAPELLVFAASNLQIGVPSRFRGSGSETYFTLTINSLQPEDSGTYFCQNGHSFPLTFGGGTKLEI', 'nM', 0.028),
  ('mAb 1337 (antibody, V domains shown) VH: QVTLKESGPTLVKPTQTLTLTCSFSGFSLSTSGVGVGWVRQPPGKALEWLAFIWWDDDKYYSPSLESRLTITKDTSKNQVVLTMTNMDPVDTATYYCARSADDYLYYSFDTWGQGTLVT VL: DIQMTQSPSSLSAFVGDGVTMTCWASQSINDYLNWYHQRPGEAPELLVFAASNLQIGVPSRFRGSGSETYFTLTINSLQPEDSGTYFCQHGHSFPLTFGGGTKLEI', 'nM', 0.047);

Attention now turns to another entry.
For mAb 926 (antibody, human IgG1, kappa, V domains shown) VH: QVTLKESGPTLVKPTQTLTLTCSFSGFSLSTSGVGVGWVRQPPGKALEWLAFIFWDDDKYYSPSLESRLTITKDTSKNQVVLTMTNMDPVDTATYYCARSADDYLYYALDYWGQGTLVTVSS VL: DIQMTQSPSSLSAFVGDGVTMTCWASQSINDYLNWYHQRPGEAPELLVFAASNLQIGVPSRFRGSGSETYFTLTINSLQPEDSGTYFCQNGHSFPLTFGGGTKLEIKR , write its IC50. 0.033
